These entries and their values trace back to ChEMBL document CHEMBL1944602.

measurement-target: NAD-dependent protein deacetylase sirtuin-1 (Homo sapiens)
assay-notes: Inhibition of SirT1 in human ARN8 cells assessed as p53 activation at 10 uM by beta-galactosidase reporter gene assay
Assay type: cell-based
The source made the active and inactive calls. The rule behind the calls is not given here.
Give one outcome, nothing more. List: y = active, n = inactive

Worked examples, 4 compounds total:
CN(C)CCCCC(=O)Nc1ccc(NC(=S)NC(=O)c2ccccc2Cl)cc1; n
CCCCc1ccc(C(=O)NC(=S)Nc2ccc(NC(=O)CCCCN(C)C)cc2)cc1.Cl; n
CN(C)CCCCC(=O)Nc1ccc(NC(=S)NC(=O)c2ccc(Br)cc2)cc1; n
CN(C)CCCCC(=O)Nc1ccc(NC(=S)NC(=O)c2ccc(C(C)(C)C)cc2)cc1.Cl; y

Challenge: Which outcome was assigned to `Cc1ccccc1C(=O)NC(=S)Nc1ccc(NC(=O)CCCCN(C)C)cc1` in this test?
Response given: n

Challenge: Which outcome was assigned to `CN(C)CCCCC(=O)Nc1ccc(NC(=S)NC(=O)c2ccc(Cl)c(Cl)c2)cc1` in this test?
Response given: n

Challenge: Which outcome was assigned to `CN(C)CCCCC(=O)Nc1ccc(NC(=S)NC(=O)c2ccc(Cl)cc2)cc1` in this test?
Response given: n

Challenge: Which outcome was assigned to `CN(C)CCCCC(=O)Nc1ccc(NC(=S)NC(=O)c2cccc(Cl)c2)cc1` in this test?
Response given: n

Challenge: Which outcome was assigned to `COc1cccc(C(=O)NC(=S)Nc2ccc(NC(=O)CCCCN(C)C)cc2)c1` in this test?
Response given: n

Challenge: Which outcome was assigned to `COc1ccc(C(=O)NC(=S)Nc2ccc(NC(=O)CCCCN(C)C)cc2)cc1` in this test?
Response given: n

Challenge: Which outcome was assigned to `CN(C)CCCCC(=O)Nc1ccc(NC(=S)NC(=O)c2ccc(C(C)(C)C)c(Br)c2)cc1` in this test?
Response given: n

Challenge: Which outcome was assigned to `CC(C)c1ccc(C(=O)NC(=S)Nc2ccc(NC(=O)CCCCN(C)C)cc2)cc1` in this test?
Response given: y

Challenge: Which outcome was assigned to `CN(C)CCCCC(=O)Nc1ccc(NC(=O)NC(=O)c2ccc(C(C)(C)C)cc2)cc1` in this test?
Response given: y

Challenge: Which outcome was assigned to `CN(C)CCCCC(=O)Nc1ccc(NC(=S)NC(=O)c2cccc(Br)c2)cc1` in this test?
Response given: n

Challenge: Which outcome was assigned to `CCCc1ccc(C(=O)NC(=S)Nc2ccc(NC(=O)CCCCN(C)C)cc2)cc1` in this test?
Response given: y

Challenge: Which outcome was assigned to `CN(C)CCCCC(=O)Nc1ccc(NC(=S)NC(=O)c2ccccc2)cc1` in this test?
Response given: n

Challenge: Which outcome was assigned to `Cc1ccc(C(=O)NC(=S)Nc2ccc(NC(=O)CCCCN(C)C)cc2)cc1` in this test?
Response given: n

====

measurement-target: NAD-dependent protein deacetylase sirtuin-1 (Homo sapiens) (UniProt Q96EB6)
assay-notes: Inhibition of recombinant human SitT1 at 60 uM by Fluor de Lys fluorescence assay
Class 1.0: inhibition at least 50%. Class 0.0: inhibition below 50%.

CN(C)CCCCC(=O)Nc1ccc(NC(=S)NC(=O)c2ccccc2Cl)cc1; 0.0

Challenge: Please indicate if the recorded inhibition for `Cc1ccc(C(=O)NC(=S)Nc2ccc(NC(=O)CCCCN(C)C)cc2)cc1` meets or exceeds 50%.
Response given: 0.0

Challenge: Please indicate if the recorded inhibition for `COc1cccc(C(=O)NC(=S)Nc2ccc(NC(=O)CCCCN(C)C)cc2)c1` meets or exceeds 50%.
Response given: 0.0

Challenge: Please indicate if the recorded inhibition for `CN(C)CCCCC(=O)Nc1ccc(NC(=S)NC(=O)c2ccc(Br)cc2)cc1` meets or exceeds 50%.
Response given: 0.0

====

measurement-target: NAD-dependent protein deacetylase sirtuin-1 (Homo sapiens) (UniProt Q96EB6)
assay-notes: Inhibition of SirT1 in human ARN8 cells assessed as p53 activation at 20 uM by beta-galactosidase reporter gene assay
Type: cell-based
Calls of active or inactive are those of the source. The rule behind the calls is not given here.
Give one outcome, nothing more. List: TRUE (active), FALSE (inactive)

Worked examples, 8 molecules total:
CN(C)CCCCC(=O)Nc1ccc(NC(=S)NC(=O)c2ccc(Cl)c(Cl)c2)cc1; FALSE
CCCc1ccc(C(=O)NC(=S)Nc2ccc(NC(=O)CCCCN(C)C)cc2)cc1; TRUE
Cc1cccc(C(=O)NC(=S)Nc2ccc(NC(=O)CCCCN(C)C)cc2)c1; FALSE
CN(C)CCCCC(=O)Nc1ccc(NC(=S)NC(=O)c2ccc(C(C)(C)C)c(Br)c2)cc1; TRUE
CN(C)CCCCC(=O)Nc1ccc(NC(=S)NC(=O)c2cccc(Cl)c2)cc1; FALSE
CN(C)CCCCC(=O)Nc1ccc(NC(=O)NC(=O)c2ccc(C(C)(C)C)cc2)cc1; TRUE
Cc1ccccc1C(=O)NC(=S)Nc1ccc(NC(=O)CCCCN(C)C)cc1; FALSE
Cc1ccc(C(=O)NC(=S)Nc2ccc(NC(=O)CCCCN(C)C)cc2)cc1; FALSE

Challenge: Which outcome was assigned to `CN(C)CCCCC(=O)Nc1ccc(NC(=S)NC(=O)c2ccccc2Cl)cc1` in this test?
Response given: FALSE

Challenge: Which outcome was assigned to `CN(C)CCCCNC(=O)c1ccc(NC(=S)NC(=O)c2ccc(C(C)(C)C)cc2)cc1` in this test?
Response given: TRUE

====

# key: entry, value: fold change (FC)
measurement-target: NAD-dependent protein deacetylase sirtuin-1 (Homo sapiens) (UniProt Q96EB6)
Sequence (whole entry): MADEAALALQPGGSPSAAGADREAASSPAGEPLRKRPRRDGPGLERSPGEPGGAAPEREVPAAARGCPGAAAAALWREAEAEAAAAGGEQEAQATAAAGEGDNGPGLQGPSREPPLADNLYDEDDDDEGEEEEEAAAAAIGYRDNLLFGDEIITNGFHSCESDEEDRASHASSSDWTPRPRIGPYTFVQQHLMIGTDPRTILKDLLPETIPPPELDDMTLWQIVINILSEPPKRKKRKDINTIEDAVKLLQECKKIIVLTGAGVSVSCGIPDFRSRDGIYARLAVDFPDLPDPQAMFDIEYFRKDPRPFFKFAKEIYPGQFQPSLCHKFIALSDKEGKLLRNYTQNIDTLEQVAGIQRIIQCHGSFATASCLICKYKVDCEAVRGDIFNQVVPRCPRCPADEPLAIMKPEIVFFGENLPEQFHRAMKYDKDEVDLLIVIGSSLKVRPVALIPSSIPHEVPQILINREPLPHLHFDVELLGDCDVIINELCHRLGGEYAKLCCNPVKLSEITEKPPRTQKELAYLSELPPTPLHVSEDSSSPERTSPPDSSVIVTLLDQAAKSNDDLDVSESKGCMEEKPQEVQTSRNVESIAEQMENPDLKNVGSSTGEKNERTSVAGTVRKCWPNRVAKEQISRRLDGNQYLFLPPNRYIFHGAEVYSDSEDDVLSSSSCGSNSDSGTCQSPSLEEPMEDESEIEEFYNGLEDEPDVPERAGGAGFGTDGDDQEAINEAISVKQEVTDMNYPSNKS
assay-notes: Inhibition of SirT1 in human ARN8 cells assessed as p53 activation at 10 uM by beta-galactosidase reporter gene assay relative to control
Type: cell-based
// no unit string in output, number only

Answered examples (3):
CN(C)CCCCC(=O)Nc1ccc(NC(=S)NC(=O)c2ccc(Cl)cc2)cc1; 1.2
CN(C)CCCCC(=O)Nc1ccc(NC(=S)NC(=O)c2cccc(Br)c2)cc1; 1.2
CC(C)c1ccc(C(=O)NC(=S)Nc2ccc(NC(=O)CCCCN(C)C)cc2)cc1; 11.1

Query compound follows.
Data point: `CN(C)CCCCC(=O)Nc1ccc(NC(=O)NC(=O)c2ccc(C(C)(C)C)cc2)cc1` ; fold change (FC) = 7.3

====

measurement-target: NAD-dependent protein deacetylase sirtuin-2 (Homo sapiens, UniProt Q8IXJ6)
Sequence (Q8IXJ6 whole entry): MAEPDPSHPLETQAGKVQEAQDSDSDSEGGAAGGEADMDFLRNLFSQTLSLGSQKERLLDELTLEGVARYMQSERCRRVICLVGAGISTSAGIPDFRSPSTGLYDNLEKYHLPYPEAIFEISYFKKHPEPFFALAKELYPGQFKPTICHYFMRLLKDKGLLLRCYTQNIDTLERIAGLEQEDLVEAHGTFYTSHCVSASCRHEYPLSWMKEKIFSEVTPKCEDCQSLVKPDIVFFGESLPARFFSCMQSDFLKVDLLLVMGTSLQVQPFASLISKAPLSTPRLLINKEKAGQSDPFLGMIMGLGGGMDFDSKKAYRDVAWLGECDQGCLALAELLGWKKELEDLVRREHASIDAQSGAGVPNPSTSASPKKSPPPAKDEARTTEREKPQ
assay-notes: Inhibition of recombinant human SitT2 by Fluor de Lys fluorescence assay
# key: entry, value: pIC50
# pIC50: negative log10 of molar concentration; output just the value

CCCc1ccc(C(=O)NC(=S)Nc2ccc(NC(=O)CCCCN(C)C)cc2)cc1; 5.11
CN(C)CCCCCCCC(=O)Nc1ccc(NC(=S)NC(=O)c2ccc(C(C)(C)C)cc2)cc1.Cl; 4.38
CCCCc1ccc(C(=O)NC(=S)Nc2ccc(NC(=O)CCCCN(C)C)cc2)cc1.Cl; 5.07
CN(C)CCCCCC(=O)Nc1ccc(NC(=S)NC(=O)c2ccc(C(C)(C)C)cc2)cc1.Cl; 4.67
Cc1ccccc1C(=O)NC(=S)Nc1ccc(NC(=O)CCCCN(C)C)cc1; 4.37
CN(C)CCCCNC(=O)c1ccc(NC(=S)NC(=O)c2ccc(C(C)(C)C)cc2)cc1; 4.91
CN(C)CCCC(=O)Nc1ccc(NC(=S)NC(=O)c2ccc(C(C)(C)C)cc2)cc1.Cl; 4.89

Data point: `CN(C)CCCCC(=O)Nc1ccc(NC(=O)NC(=O)c2ccc(C(C)(C)C)cc2)cc1` ; pIC50 = 4.05
